Organism: Rattus norvegicus
Assay: Open TG-GATES - Regimen: Single
Assay type: toxicity, organism-based, Sprague-Dawley
Design: regimen Single, gender Male, age 6 weeks
Conditions: in vivo, po, 0 mg/kg, 9 h, tissue Blood, route gavage, dose level Control
Catalogue of APTT readings, one per entry.
reported_metric: APTT (s)

>>> meas_value("Cc1nnc2n1-c1ccc(Cl)cc1C(c1ccccc1Cl)=NC2")
17.5
>>> meas_value("CN/C(=N/CCSCc1nc[nH]c1C)NC#N")
17.6
>>> meas_value("CCCc1cc(=O)[nH]c(=S)[nH]1")
16
>>> meas_value("Brc1ccccc1")
15.4

---

Catalogue of Ca readings, one per entry.
Organism: Rattus norvegicus
Experiment: Open TG-GATES - Regimen: Daily Repeat
Type: toxicity, organism-based, Sprague-Dawley
Set-up: regimen Daily Repeat, gender Male, age 6 weeks
Details: in vivo, po, 1000 mg/kg, […], tissue Plasma, route gavage, dose level High, time 14 day
reported_metric: Ca (mg/dL)

>>> meas_value("COC(=O)C1=C(C)NC(C)=C(C(=O)OC)C1c1ccccc1[N+](=O)[O-]")
11
>>> meas_value("CN/C(=N/CCSCc1nc[nH]c1C)NC#N")
10.7
>>> meas_value("CCOc1ccc(NC(C)=O)cc1")
10.8
>>> meas_value("CNC(=C[N+](=O)[O-])NCCSCc1ccc(CN(C)C)o1")
10.5
>>> meas_value("Cc1nnc2n1-c1ccc(Cl)cc1C(c1ccccc1Cl)=NC2")
10.8
>>> meas_value("O=C(OC[C@H]1O[C@@H](OC(=O)c2cc(O)c(O)c(OC(=O)c3cc(O)c(O)c(O)c3)c2)[C@H](OC(=O)c2cc(O)c(O)c(OC(=O)c3cc(O)c(O)c(O)c3)c2)[C@@H](OC(=O)c2cc(O)c(O)c(OC(=O)c3cc(O)c(O)c(O)c3)c2)[C@@H]1OC(=O)c1cc(O)c(O)c(OC(=O)c2cc(O)c(O)c(O)c2)c1)c1cc(O)c(O)c(OC(=O)c2cc(O)c(O)c(O)c2)c1")
10.7

---

Catalogue of GLC readings, one per entry.
Species on record: Rattus norvegicus
Experiment: Open TG-GATES - Regimen: Daily Repeat
Format: toxicity, organism-based, Sprague-Dawley
Design: regimen Daily Repeat, gender Male, age 6 weeks
Conditions: in vivo, po, 1000 mg/kg, […], tissue Plasma, route gavage, dose level High, time 7 day
reported_metric: GLC (mg/dL)

>>> meas_value("COC(=O)C1=C(C)NC(C)=C(C(=O)OC)C1c1ccccc1[N+](=O)[O-]")
155.6
>>> meas_value("CNC(=C[N+](=O)[O-])NCCSCc1ccc(CN(C)C)o1")
224.4
>>> meas_value("CN/C(=N/CCSCc1nc[nH]c1C)NC#N")
216
>>> meas_value("CCOc1ccc(NC(C)=O)cc1")
167.4
>>> meas_value("Cc1nnc2n1-c1ccc(Cl)cc1C(c1ccccc1Cl)=NC2")
176.6
>>> meas_value("O=C(OC[C@H]1O[C@@H](OC(=O)c2cc(O)c(O)c(OC(=O)c3cc(O)c(O)c(O)c3)c2)[C@H](OC(=O)c2cc(O)c(O)c(OC(=O)c3cc(O)c(O)c(O)c3)c2)[C@@H](OC(=O)c2cc(O)c(O)c(OC(=O)c3cc(O)c(O)c(O)c3)c2)[C@@H]1OC(=O)c1cc(O)c(O)c(OC(=O)c2cc(O)c(O)c(O)c2)c1)c1cc(O)c(O)c(OC(=O)c2cc(O)c(O)c(O)c2)c1")
200.4

---

Species on record: Rattus norvegicus
Experiment: Open TG-GATES - Regimen: Daily Repeat
Format: toxicity, organism-based, Sprague-Dawley
Set-up: regimen Daily Repeat, gender Male, age 6 weeks
Conditions: in vivo, po, 1000 mg/kg, […], tissue Kidney, route gavage, dose level High, time 28 day
reported_metric: KIDNEY_R (g)

>>> meas_value("O=C(OC[C@H]1O[C@@H](OC(=O)c2cc(O)c(O)c(OC(=O)c3cc(O)c(O)c(O)c3)c2)[C@H](OC(=O)c2cc(O)c(O)c(OC(=O)c3cc(O)c(O)c(O)c3)c2)[C@@H](OC(=O)c2cc(O)c(O)c(OC(=O)c3cc(O)c(O)c(O)c3)c2)[C@@H]1OC(=O)c1cc(O)c(O)c(OC(=O)c2cc(O)c(O)c(O)c2)c1)c1cc(O)c(O)c(OC(=O)c2cc(O)c(O)c(O)c2)c1")
1.4
>>> meas_value("COC(=O)C1=C(C)NC(C)=C(C(=O)OC)C1c1ccccc1[N+](=O)[O-]")
1.3
>>> meas_value("CN/C(=N/CCSCc1nc[nH]c1C)NC#N")
1.4
>>> meas_value("Cc1nnc2n1-c1ccc(Cl)cc1C(c1ccccc1Cl)=NC2")
1.4
>>> meas_value("CNC(=C[N+](=O)[O-])NCCSCc1ccc(CN(C)C)o1")
1.4
>>> meas_value("CCOc1ccc(NC(C)=O)cc1")
1.5

---

Species on record: Rattus norvegicus
Assay: Open TG-GATES - Regimen: Single
Format: toxicity, organism-based, Sprague-Dawley
Set-up: regimen Single, gender Male, age 6 weeks
Details: in vivo, po, 0 mg/kg, 3 h, tissue Blood, route gavage, dose level Control
Catalogue of Hb readings, one per entry.
reported_metric: Hb (g/dL)

>>> meas_value("CN1C(=O)CCS(=O)(=O)C1c1ccc(Cl)cc1 (stereo not drawn) [CHLORMEZANONE]")
13.7
>>> meas_value("Brc1ccccc1 [BROMOBENZENE]")
13.1
>>> meas_value("CCCc1cc(=O)[nH]c(=S)[nH]1 [PROPYLTHIOURACIL]")
13.2
>>> meas_value("Cc1nnc2n1-c1ccc(Cl)cc1C(c1ccccc1Cl)=NC2 [TRIAZOLAM]")
13.6
>>> meas_value("O=C(OC[C@H]1O[C@@H](OC(=O)c2cc(O)c(O)c(OC(=O)c3cc(O)c(O)c(O)c3)c2)[C@H](OC(=O)c2cc(O)c(O)c(OC(=O)c3cc(O)c(O)c(O)c3)c2)[C@@H](OC(=O)c2cc(O)c(O)c(OC(=O)c3cc(O)c(O)c(O)c3)c2)[C@@H]1OC(=O)c1cc(O)c(O)c(OC(=O)c2cc(O)c(O)c(O)c2)c1)c1cc(O)c(O)c(OC(=O)c2cc(O)c(O)c(O)c2)c1 [TANNIC ACID]")
12.9
>>> meas_value("COC(=O)C1=C(C)NC(C)=C(C(=O)OC)C1c1ccccc1[N+](=O)[O-] [NIFEDIPINE]")
13.3
>>> meas_value("CN(C)CCC(c1ccc(Cl)cc1)c1ccccn1 (stereo not drawn) [CHLORPHENIRAMINE]")
12.6
>>> meas_value("Nc1c2c(nc3ccccc13)CCCC2 [TACRINE]")
13
>>> meas_value("CNC(=C[N+](=O)[O-])NCCSCc1ccc(CN(C)C)o1 [RANITIDINE]")
13.7
>>> meas_value("CN/C(=N/CCSCc1nc[nH]c1C)NC#N [CIMETIDINE]")
12.7
>>> meas_value("NC1=NC(=O)C(c2ccccc2)O1 (stereo not drawn) [PEMOLINE]")
13.1
>>> meas_value("CCOc1ccc(NC(C)=O)cc1 [PHENACETIN]")
13.3
>>> meas_value("CC(C)NNC(=O)c1ccncc1 [IPRONIAZID]")
13.3

---

Catalogue of Neu readings, one per entry.
Species: Rattus norvegicus
Test: Open TG-GATES - Regimen: Single
Type: toxicity, organism-based, Sprague-Dawley
Parameters: regimen Single, gender Male, age 6 weeks
Settings: in vivo, po, 0 mg/kg, 24 h, tissue Blood, route gavage, dose level Control
reported_metric: Neu (%)

>>> meas_value("Brc1ccccc1")
19.8
>>> meas_value("CN/C(=N/CCSCc1nc[nH]c1C)NC#N")
13.2
>>> meas_value("O=C(OC[C@H]1O[C@@H](OC(=O)c2cc(O)c(O)c(OC(=O)c3cc(O)c(O)c(O)c3)c2)[C@H](OC(=O)c2cc(O)c(O)c(OC(=O)c3cc(O)c(O)c(O)c3)c2)[C@@H](OC(=O)c2cc(O)c(O)c(OC(=O)c3cc(O)c(O)c(O)c3)c2)[C@@H]1OC(=O)c1cc(O)c(O)c(OC(=O)c2cc(O)c(O)c(O)c2)c1)c1cc(O)c(O)c(OC(=O)c2cc(O)c(O)c(O)c2)c1")
13.6
>>> meas_value("CN1C(=O)CCS(=O)(=O)C1c1ccc(Cl)cc1 (centres undefined)")
17
>>> meas_value("Nc1c2c(nc3ccccc13)CCCC2")
12.4
>>> meas_value("CC(C)NNC(=O)c1ccncc1")
17.6
>>> meas_value("NC1=NC(=O)C(c2ccccc2)O1 (centres undefined)")
20.4
>>> meas_value("CCOc1ccc(NC(C)=O)cc1")
13.6
>>> meas_value("CNC(=C[N+](=O)[O-])NCCSCc1ccc(CN(C)C)o1")
11.8
>>> meas_value("Cc1nnc2n1-c1ccc(Cl)cc1C(c1ccccc1Cl)=NC2")
16.6
>>> meas_value("CN(C)CCC(c1ccc(Cl)cc1)c1ccccn1 (centres undefined)")
14.2
>>> meas_value("CCCc1cc(=O)[nH]c(=S)[nH]1")
13.6
>>> meas_value("CS(=O)(=O)O.Cc1ccc(NC(=O)c2ccc(CN3CCN(C)CC3)cc2)cc1Nc1nccc(-c2cccnc2)n1 [IMATINIB MESYLATE]")
14.6
>>> meas_value("COC(=O)C1=C(C)NC(C)=C(C(=O)OC)C1c1ccccc1[N+](=O)[O-]")
21.8
